tested on: T47D; assay: Microculture tetrazolium assay; assay type: cell-based; settings: Homo sapiens, read-out: IC50
pIC50: −log10 of the molar value. Structures can show the parent of a compound that is named as a salt.
pIC50 below 6 gives Not fulfilled; pIC50 at or above it gives Fulfilled.

CC(=O)O[C@@H]1[C@H](C)O[C@@H](O[C@H]2O[C@H](C(C)=O)CC3=C2C(=O)c2cc4ccccc4c(O)c2C3=O)C[C@@H]1OC(C)=O    Not fulfilled
C[C@@H]1O[C@@H](O[C@@H]2O[C@@H](S(=O)(=O)c3ccccc3)CC3=C2C(=O)c2cc4ccccc4c(O)c2C3=O)C[C@H](NC(=O)C(F)(F)F)[C@@H]1O    Not fulfilled
CC(=O)[C@@H]1Cc2c(O)c3c(c(O)c2[C@@H](O[C@H]2C[C@H](N)[C@H](O)[C@H](C)O2)O1)C(=O)c1ccccc1C3=O [BCH-1194, hydrochloride]    Fulfilled

Then this compound:
### Prompt Is it the case that CC(=O)CC1CC2=C(C(=O)c3cc4ccccc4c(O)c3C2=O)C(O[C@H]2C[C@H](NC(=O)C(F)(F)F)[C@H](O)[C@H](C)O2)O1 (mixture of isomers) has pIC50 reaching or exceeding 6?
### Response Not fulfilled

---

system: T47D; experiment: Microculture tetrazolium assay; type: cell-based; conditions: Homo sapiens, read-out: IC50
Exam item: assign condition met to entries whose IC50 is below 4 µM and condition not met to entries at or above 4 µM. Note that a value of exactly 4 µM receives condition not met.

C=CC1CC2=C(C(=O)c3cc4ccccc4c(O)c3C2=O)C(O[C@H]2C[C@H](N)[C@H](O)[C@H](C)O2)O1 (stereo partly drawn) [BCH-1611]    condition met
CC[C@@H]1CO[C@@H](O[C@H]2C[C@H](NC(=O)C(F)(F)F)[C@H](O)[C@H](C)O2)C2=C1C(=O)c1c(cc3ccccc3c1O)C2=O (mixture of isomers) [BCH-2084]    condition not met
CC[C@H]1Cc2c(O)c3c(c(O)c2[C@H](O[C@H]2C[C@H](N)[C@H](O)[C@H](C)O2)O1)C(=O)c1ccccc1C3=O [BCH-1633]    condition met
CC(=O)OCC1([C@@H]2CC3=C(C(=O)c4c(cc5ccccc5c4OC(C)=O)C3=O)[C@@H](O[C@H]3C[C@H](NC(=O)C(F)(F)F)[C@H](O)[C@H](C)O3)O2)OCCCO1 [BCH-1178]    condition not met
CC(=O)C1CC2=C(C(=O)c3cc4ccccc4c(O)c3C2=O)C(O)S1 (stereo not drawn) [BCH-1167]    condition not met

Then this molecule:
### Prompt Hi there! Is IC50 for C[C@@H]1O[C@@H](OC2OC(CC(=O)C3CC3)CC3=C2C(=O)c2cc4ccccc4c(O)c2C3=O)C[C@H](NC(=O)C(F)(F)F)C1O (mixture of isomers) [BCH-2133] below 4 µM, do you know?
### Response condition met

---

Hi! I'm sharing some GI50 results obtained with Renal.
Answer format: numeric, µM implied, no suffix.

Below: 2 compounds and their reported GI50.
COC(=O)[C@@H]1CC2=C(C(=O)c3cc4ccccc4c(O)c3C2=O)[C@@H](O[C@H]2C[C@H](NC(=O)C(F)(F)F)[C@H](O)[C@H](C)O2)O1 [BCH-683]    3.16
COC(=O)[C@H]1CC2=C(C(=O)c3cc4ccccc4cc3C2=O)[C@H](O[C@H]2C[C@H](NC(=O)C(F)(F)F)[C@H](O)[C@H](C)O2)O1 [BCH-670]    4.37

Next:
Noted GI50 for COc1cccc2c1C(=O)c1c(O)c3c(c(O)c1C2=O)C[C@@](O)(C(=O)CO)C[C@@H]3O[C@H]1C[C@H](N)[C@H](O)[C@H](C)O1 [ADR, reference compound] , tested on Renal: 0.182

---

test system: SKVLB; test: Microculture tetrazolium assay; assay type: cell-based; conditions: IC50 ratio SKVLB/SKOV3
Counter-ions that a name gives are not always drawn.
Reported VLB/OV3 values for the following compounds.
Just the number, please.

CC(=O)C1CC2=C(C(=O)c3cc4ccccc4c(O)c3C2=O)C(OCCNC(=O)OC(C)(C)C)S1 (stereo not drawn) [BCH-1627]    2.0
CC(=O)[C@@H]1CC2=C(C(=O)c3cc4ccccc4c(O)c3C2=O)[C@@H](O[C@H]2C[C@H](NC(=O)C(F)(F)F)[C@H](I)[C@H](C)O2)O1 [BCH-1617]    1.38
CC(=O)[C@@H]1CC2=C(C(=O)c3cc4ccccc4c(O)c3C2=O)[C@@H](O[C@H]2C[C@H](NC(=O)C(F)(F)F)[C@H](OS(C)(=O)=O)[C@H](C)O2)O1 [BCH-2093]    3.82
CC(=O)Nc1nc([C@@H]2CC3=C(C(=O)c4cc5ccccc5c(O)c4C3=O)[C@@H](O[C@H]3C[C@H](NC(=O)C(F)(F)F)[C@H](O)[C@H](C)O3)O2)cs1 [BCH-1623]    1.82
COC(=O)C1CC2=C(CS1)C(=O)c1cc3ccccc3c(O)c1C2=O (stereo not drawn) [BCH-1149]    1.38

VLB/OV3 reported for this compound CC(=O)[C@H]1CC2=C(C(=O)c3cc4ccccc4c(O)c3C2=O)[C@@H](OC[C@@H]2COC(C)(C)O2)S1 [BCH-1994] : 3.15

VLB/OV3 reported for this compound C[C@@H]1O[C@@H](O[C@@H]2O[C@@H](C(C)(F)F)CC3=C2C(=O)c2cc4ccccc4c(O)c2C3=O)C[C@H](NC(=O)C(F)(F)F)[C@@H]1O (mixture of isomers) [BCH-1677] : 1.65

VLB/OV3 reported for this compound CC(C)C(=O)C1Cc2c(O)c3c(c(O)c2C(O[C@H]2C[C@H](N)[C@H](O)[C@H](C)O2)O1)C(=O)c1ccccc1C3=O (mixture of isomers) [BCH-2120, hydrochloride] : 0.92

VLB/OV3 reported for this compound CC(=O)C1CC2=C(C(=O)c3cc4ccccc4c(O)c3C2=O)C(OC[C@@H]2COC(C)(C)O2)S1 (stereo partly drawn) [BCH-1660] : 0.88

---

test system: T47D; experiment: Microculture tetrazolium assay; type: cell-based; details: Homo sapiens, read-out: IC50
Reported pIC50 values for the following compounds.
Conceptually, pIC50 converts a concentration in mol/L into minus its log10.

CC(=O)C1Cc2c(O)c3c(c(O)c2C(O[C@H]2C[C@H](N=[N+]=[N-])[C@H](I)[C@H](C)O2)O1)C(=O)c1ccccc1C3=O (stereo partly drawn)    4.00
C[C@@H]1O[C@@H](OC2OC(C#N)Cc3c(O)c4c(c(O)c32)C(=O)c2ccccc2C4=O)C[C@H](N)[C@@H]1O (mixture of isomers)    6.57
CCCCC[C@H]1Cc2c(O)c3c(c(O)c2[C@H](O[C@H]2C[C@H](N)[C@H](O)[C@H](C)O2)O1)C(=O)c1ccccc1C3=O    6.76
CC(=O)[C@@H]1CC2=C(C(=O)c3c(cc4ccccc4c3O)C2=O)[C@@H](O)O1 (relative stereo)    4.92
CCOC(=O)[C@@H]1CC2=C(C(=O)c3c(cc4ccccc4c3OC(C)=O)C2=O)[C@@H](O)O1 (relative stereo)    4.88

pIC50 reported for this compound CC1(C2CC3=C(CO2)C(=O)c2c(cc4ccccc4c2O)C3=O)OCCCO1 (stereo not drawn) : 5.42

pIC50 reported for this compound CC(C)[C@H]1Cc2c(O)c3c(c(O)c2[C@H](O[C@H]2C[C@H](N)[C@H](O)[C@H](C)O2)O1)C(=O)c1ccccc1C3=O : 6.58

---

system: MCF7; assay: Soft agar colony formation disk diffusion assay; assay type: cell-based, human; conditions: 100 μg/DISK
Reported zone of inhibition values for the following molecules.
Answer format: numeric, Zone Units implied, no suffix.

Noted zone of inhibition for CCOC(=O)C1Cc2c(O)c3c(c(O)c2CS1)C(=O)c1ccccc1C3=O (stereo not shown) [BCH-713] , tested on MCF7: 0

Noted zone of inhibition for CC(=O)Oc1c2c(c(O)c3ccccc13)C(=O)C1=C(C2=O)C(O)OC(C(C)=O)C1 (stereo not shown) [BCH-704] , tested on MCF7: 320.5

Noted zone of inhibition for CCOC(=O)[C@H]1CC2=C(C(=O)c3cc4ccccc4c(O)c3C2=O)[C@H](O[C@H]2C[C@H](NC(=O)C(F)(F)F)[C@H](O)[C@H](C)O2)O1 [BCH-684] , tested on MCF7: 225.7

Noted zone of inhibition for CCOC(=O)C1Cc2c(OCC)c3c(c(O)c2C(O[C@H]2C[C@H](NC(=O)C(F)(F)F)[C@H](O)[C@H](C)O2)O1)C(=O)c1ccccc1C3=O (stereo partly shown) [BCH-705] , tested on MCF7: 79.3

Noted zone of inhibition for CCOC(=O)C1CC2=C(CO1)C(=O)c1c(cc3ccccc3c1O)C2=O (stereo not shown) [BCH-651] , tested on MCF7: 115.9

Noted zone of inhibition for COC(=O)[C@@H]1CC2=C(C(=O)c3c(cc4ccccc4c3O)C2=O)[C@@H](O[C@H]2C[C@H](NC(=O)C(F)(F)F)[C@H](O)[C@H](C)O2)O1 [BCH-691] , tested on MCF7: 417.5

Noted zone of inhibition for CC(=O)Oc1c2c(c(O)c3ccccc13)C(=O)C1=C(CC(C(C)=O)OC1)C2=O (stereo not shown) [BCH-721] , tested on MCF7: 167.0
